Listed next: entries and their corresponding IC50 (toxin) nM, DU145 PSMA cells, 72 h.
biological target: human prostate specific membrane antigen (PSMA), full-length, on cells (human, UniProt Q04609 1-750); assay: cell-based or functional assay
Sequence (Q04609 whole entry): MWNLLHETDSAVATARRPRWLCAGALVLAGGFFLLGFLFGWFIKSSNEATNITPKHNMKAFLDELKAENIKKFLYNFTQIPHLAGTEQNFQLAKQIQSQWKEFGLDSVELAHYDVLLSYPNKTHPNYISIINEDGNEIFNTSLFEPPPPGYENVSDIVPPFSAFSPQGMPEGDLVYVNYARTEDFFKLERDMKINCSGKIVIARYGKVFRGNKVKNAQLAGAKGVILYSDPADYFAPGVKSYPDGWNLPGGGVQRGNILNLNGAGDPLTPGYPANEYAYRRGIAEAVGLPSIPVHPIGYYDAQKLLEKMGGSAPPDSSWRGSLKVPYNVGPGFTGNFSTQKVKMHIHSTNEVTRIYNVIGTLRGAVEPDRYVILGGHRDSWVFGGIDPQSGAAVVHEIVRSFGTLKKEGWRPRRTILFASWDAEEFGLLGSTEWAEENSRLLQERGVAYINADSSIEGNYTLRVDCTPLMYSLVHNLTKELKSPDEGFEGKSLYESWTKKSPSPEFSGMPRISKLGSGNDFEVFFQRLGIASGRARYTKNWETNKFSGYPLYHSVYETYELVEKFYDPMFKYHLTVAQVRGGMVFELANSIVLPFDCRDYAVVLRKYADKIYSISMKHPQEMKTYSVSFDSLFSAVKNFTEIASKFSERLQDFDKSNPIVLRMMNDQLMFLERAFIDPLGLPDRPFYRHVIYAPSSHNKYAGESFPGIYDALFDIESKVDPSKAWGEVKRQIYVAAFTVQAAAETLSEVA
endpoint label: IC50 (toxin) nM, DU145 PSMA cells, 72 h

[
  {
    "binder": "HiPEG A-2-A-His6 val-cit-PAB-MMAE (VHH, HiPEG val-cit-PAB-MMAE attached via the C-terminal His6-tag, DAR 1) EVQLVESGGGVVQPGRSLRLSCAASGFSFSGYGMHWVRQAPGKGLEWVAYISYDGSNKYYADSVKGRFTISRDNSKNTLYLQMNSLRAEDTAVYYCAKDPAWGLRLGESSSYDFDIWGQGTMVTVSSGGGGSGGGGSGGGGSGGGGSGGGGSGGGGSEVQLVESGGGVVQPGRSLRLSCAASGFSFSGYGMHWVRQAPGKGLEWVAYISYDGSNKYYADSVKGRFTISRDNSKNTLYLQMNSLRAEDTAVYYCAKDPAWGLRLGESSSYDFDIWGQGTMVTVSSAAAHHHHHH",
    "result": "0.19 nM"
  },
  {
    "binder": "HiPEG A-2-B-His6 val-cit-PAB-MMAE (bispecific antibody, HiPEG val-cit-PAB-MMAE attached via the C-terminal His6-tag, DAR 1) EVQLVESGGGVVQPGRSLRLSCAASGFSFSGYGMHWVRQAPGKGLEWVAYISYDGSNKYYADSVKGRFTISRDNSKNTLYLQMNSLRAEDTAVYYCAKDPAWGLRLGESSSYDFDIWGQGTMVTVSSGGGGSGGGGSGGGGSGGGGSGGGGSGGGGSEVQLLESGGGLVQPGGSLRLSCAASGFSFSSYAMSWVRQAPGKGLEWVSSIGENDGTTDYADSVKGRFTISRDNSKSMLYLQMNSLRVEDTAVYYCVKDGVHWGQGTLVTVSSAAAHHHHHH",
    "result": "0.29 nM"
  },
  {
    "binder": "HiPEG B-1-A-His6 val-cit-PAB-MMAE (bispecific antibody, HiPEG val-cit-PAB-MMAE attached via the C-terminal His6-tag, DAR 1) EVQLLESGGGLVQPGGSLRLSCAASGFSFSSYAMSWVRQAPGKGLEWVSSIGENDGTTDYADSVKGRFTISRDNSKSMLYLQMNSLRVEDTAVYYCVKDGVHWGQGTLVTVSSGGGGSGGGGSEVQLVESGGGVVQPGRSLRLSCAASGFSFSGYGMHWVRQAPGKGLEWVAYISYDGSNKYYADSVKGRFTISRDNSKNTLYLQMNSLRAEDTAVYYCAKDPAWGLRLGESSSYDFDIWGQGTMVTVSS",
    "result": "0.1 nM"
  },
  {
    "binder": "HiPEG B-2-B-His6 val-cit-PAB-MMAE (VHH, HiPEG val-cit-PAB-MMAE attached via the C-terminal His6-tag, DAR 0.7) EVQLLESGGGLVQPGGSLRLSCAASGFSFSSYAMSWVRQAPGKGLEWVSSIGENDGTTDYADSVKGRFTISRDNSKSMLYLQMNSLRVEDTAVYYCVKDGVHWGQGTLVTVSSGGGGSGGGGSGGGGSGGGGSGGGGSGGGGSEVQLLESGGGLVQPGGSLRLSCAASGFSFSSYAMSWVRQAPGKGLEWVSSIGENDGTTDYADSVKGRFTISRDNSKSMLYLQMNSLRVEDTAVYYCVKDGVHWGQGTLVTVSS",
    "result": "14.7 nM"
  },
  {
    "binder": "HiPEG A-His6 val-cit-PAB-MMAE (VHH, HiPEG val-cit-PAB-MMAE attached via the C-terminal His6-tag, DAR 1) VHH: EVQLVESGGGVVQPGRSLRLSCAASGFSFSGYGMHWVRQAPGKGLEWVAYISYDGSNKYYADSVKGRFTISRDNSKNTLYLQMNSLRAEDTAVYYCAKDPAWGLRLGESSSYDFDIWGQGTMVTVSS",
    "result": "0.55 nM"
  },
  {
    "binder": "HiPEG B-His6 val-cit-PAB-MMAE (VHH, HiPEG val-cit-PAB-MMAE attached via the C-terminal His6-tag, DAR 0.9) VHH: EVQLLESGGGLVQPGGSLRLSCAASGFSFSSYAMSWVRQAPGKGLEWVSSIGENDGTTDYADSVKGRFTISRDNSKSMLYLQMNSLRVEDTAVYYCVKDGVHWGQGTLVTVSS",
    "result": "3.69 nM"
  }
]

The values you see were collected from patent US20200131274A1.
